# system name: T1, native human IL-33 from human lung fibroblast (HFL-1) lysate (human, UniProt O95760 1-270, limits assumed)
# T1 sequence (looked up): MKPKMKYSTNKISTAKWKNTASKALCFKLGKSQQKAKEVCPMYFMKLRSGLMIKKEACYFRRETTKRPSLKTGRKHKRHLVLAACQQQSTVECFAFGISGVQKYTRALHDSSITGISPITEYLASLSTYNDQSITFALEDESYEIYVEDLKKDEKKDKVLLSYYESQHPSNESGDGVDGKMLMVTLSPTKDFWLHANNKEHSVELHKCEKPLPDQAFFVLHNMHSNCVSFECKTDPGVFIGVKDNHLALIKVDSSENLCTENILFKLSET
# method description: cell-based or functional assay
Assign % inhibition 1 nM Ab, HEK293 ST2 NFkB to each entry below.
Respond numerically; units are % and should not be typed.

q: Requested field: % inhibition 1 nM Ab, HEK293 ST2 NFkB. Item: rat 9B3 (9B3 hybridoma) (antibody, V domains shown) VH: EVQLVETGGGLVQPGRSLKLSCVASGFTFSNYWMYWIRQAPGMGLEWVSSINNDGGNTYYLDSVKGRFTISRNNAENTVYLQMNSLRSEDTATYYCAKGHYSYSSYSFSYWGQGTLVTVSS VL: DIQMTQSPSVLSASVGDRVTLSCKASHNINKHLDWCQQKVGEAPKLLIYFTNNLQTGIPSRFSGSGSGTDYTLTISSLQPEDVATYFCFQYNSGWTFGGGTKLELK
a: 99.2

q: Requested field: % inhibition 1 nM Ab, HEK293 ST2 NFkB. Item: 12F9 chimera (antibody, human IgG1, kappa, V domains shown, also called chimeric 12F9) VH: EVQLVESGGDLVQPGRSLKLSCVTSGFIFKNYWMTWIRQVPGKGLEWVASITNTGGATYYPDSVKGRFTISRDNSENTLYLQMNSLRSEDTATYYCARDRRYNSGSPFAYWGQGTLVTVSS VL: DIQLTQSPSTLAASLGERVTISCRASQSISNSLIWFQQKPDGTIKRLIYSSSTLESGVPSRFSGSGSGTDYSLSISSLESEDFAMYYCLQYATYPWTFGGGTKLELRR
a: 82.6

q: Requested field: % inhibition 1 nM Ab, HEK293 ST2 NFkB. Item: rat 30B11 (30B11 hybridoma) (antibody, V domains shown) VH: QVKLLQSGAALVKPGASVKMSCATSGFSFTDYWVSWVKQSHGKGLEWIGEIYPNSGADNFNENFKGKATLTVDKSTSTAYMELSRLTSEDSAIYYCTRGPYYYSTQIIFAYWGQGTLVTVSS VL: NIVMTQSPKSMSISVGDRVTMNCKASQNVGNNLAWYQQKPGQSPKLLIYYASNRYTGVPDRFTGGGYGTDFTLTINSVQAEDAAFYYCQRIYNSPPTFGGGTKVELR
a: 108
